Please respond with reported CC50 for every item in the list.
experiment: Cytotoxicity against human HuH7 cells; type: cell-based, Huh-7

For the compound `O=C(CC(=O)c1nnc[nH]1)c1ccc(OCc2ccc(F)cc2)cc1` , what CC50 is on record? > 500 µM

For the compound `O=C(CC(=O)c1ccccc1OCc1ccccc1)c1nnn[nH]1` , what CC50 is on record? > 500 µM

For the compound `O=C(CC(=O)c1nnc[nH]1)c1ccc(OCc2ccc(Cl)cc2)cc1` , what CC50 is on record? > 500 µM
